Reference source for all entries: patent US4327097A

# Test system: Staphylococcus aureus 209p
# Assay protocol: MIC, plate method, standard strains
# Assay type: cell-based
# Condition context: Table 3, standard strain, Heart infusion agar pH 7.4; unit assumed
Parameter: MIC Staphylococcus aureus 209p

[
  {
    "Compound": "CC1(C)S[C@@H]2[C@H](NC(=O)[C@H](N)c3ccccc3)C(=O)N2[C@H]1C(=O)O [drawing 185, reference compound]",
    "Parameter": "MIC Staphylococcus aureus 209p",
    "Observed value": "< 1.57 µg/mL"
  },
  {
    "Compound": "CC(=O)OCCN1CCN(C(=O)NC(C(=O)NC2C(=O)N3C2SC(C)(C)C3C(=O)O)c2ccccc2)C(=O)C1=O (single isomer, unassigned)",
    "Parameter": "MIC Staphylococcus aureus 209p",
    "Observed value": "< 1.57 µg/mL"
  },
  {
    "Compound": "CC1(C)SC2C(NC(=O)C(NC(=O)N3CCN(CCCl)C(=O)C3=O)c3ccccc3)C(=O)N2C1C(=O)O (single isomer, unassigned)",
    "Parameter": "MIC Staphylococcus aureus 209p",
    "Observed value": "< 1.57 µg/mL"
  },
  {
    "Compound": "CCCN1CCN(C(=O)NC(C(=O)NC2C(=O)N3C2SC(C)(C)C3C(=O)O)c2ccccc2)C(=O)C1=O (single isomer, unassigned)",
    "Parameter": "MIC Staphylococcus aureus 209p",
    "Observed value": "0.4 µg/mL"
  },
  {
    "Compound": "CCCCCCCCN1CCN(C(=O)NC(C(=O)NC2C(=O)N3C2SC(C)(C)C3C(=O)OCOC)c2ccccc2)C(=O)C1=O (single isomer, unassigned)",
    "Parameter": "MIC Staphylococcus aureus 209p",
    "Observed value": "< 0.4 µg/mL"
  },
  {
    "Compound": "CN1CCN(C(=O)N[C@@H](C(=O)N[C@@H]2C(=O)N3[C@@H]2SC(C)(C)[C@@H]3C(=O)OC2OC(=O)c3ccccc32)c2ccccc2)C(=O)C1=O (single isomer, unassigned)",
    "Parameter": "MIC Staphylococcus aureus 209p",
    "Observed value": "< 0.4 µg/mL"
  },
  {
    "Compound": "CCCCCCCCN1CCN(C(=O)N[C@@H](C(=O)N[C@@H]2C(=O)N3[C@@H]2SC(C)(C)[C@@H]3C(=O)O)c2ccccc2)C(=O)C1",
    "Parameter": "MIC Staphylococcus aureus 209p",
    "Observed value": "< 1.57 µg/mL"
  },
  {
    "Compound": "CCN1CCN(C(=O)N[C@@H](C(=O)N[C@@H]2C(=O)N3[C@@H]2SC(C)(C)[C@@H]3C(=O)O)c2ccccc2)C(=O)C1=O",
    "Parameter": "MIC Staphylococcus aureus 209p",
    "Observed value": "< 1.57 µg/mL"
  },
  {
    "Compound": "COCOC(=O)C1N2C(=O)C(NC(=O)C(NC(=O)N3CCN(C)C(=O)C3=O)c3ccccc3)C2SC1(C)C (single isomer, unassigned)",
    "Parameter": "MIC Staphylococcus aureus 209p",
    "Observed value": "< 0.79 µg/mL"
  },
  {
    "Compound": "CCCCN1CCN(C(=O)NC(C(=O)NC2C(=O)N3C2SC(C)(C)C3C(=O)O)c2ccccc2)C(=O)C1=O (single isomer, unassigned)",
    "Parameter": "MIC Staphylococcus aureus 209p",
    "Observed value": "0.4 µg/mL"
  },
  {
    "Compound": "CCCCN1CCN(C(=O)N[C@@H](C(=O)N[C@@H]2C(=O)N3[C@@H]2SC(C)(C)[C@@H]3C(=O)O)c2ccccc2)C(=O)C1",
    "Parameter": "MIC Staphylococcus aureus 209p",
    "Observed value": "< 1.57 µg/mL"
  },
  {
    "Compound": "CC1(C)SC2C(NC(=O)C(NC(=O)N3CC(=O)NC(=O)C3)c3ccccc3)C(=O)N2C1C(=O)O (stereo not shown)",
    "Parameter": "MIC Staphylococcus aureus 209p",
    "Observed value": "< 1.57 µg/mL"
  },
  {
    "Compound": "CC(C)N1CCN(C(=O)NC(C(=O)NC2C(=O)N3C2SC(C)(C)C3C(=O)O)c2ccccc2)C(=O)C1=O (single isomer, unassigned)",
    "Parameter": "MIC Staphylococcus aureus 209p",
    "Observed value": "0.4 µg/mL"
  }
]

----------
# System: Staphylococcus aureus
# Assay protocol: MIC against clinical isolates
# Assay type: cell-based
# Condition context: Table 5-1, clinical isolate; unit assumed
compounds and their reported MIC Staphylococcus aureus MS 8596

[
  {
    "Compound": "CCCCN1CCN(C(=O)NC(C(=O)NC2C(=O)N3C2SC(C)(C)C3C(=O)O)c2ccccc2)C(=O)C1=O (single isomer, unassigned)",
    "Output unit": "µg/mL",
    "MIC Staphylococcus aureus MS 8596": 1.57
  },
  {
    "Compound": "CCN1CCN(C(=O)N[C@@H](C(=O)N[C@@H]2C(=O)N3[C@@H]2SC(C)(C)[C@@H]3C(=O)O)c2ccccc2)C(=O)C1=O",
    "Output unit": "µg/mL",
    "MIC Staphylococcus aureus MS 8596": 3.13
  },
  {
    "Compound": "CCCCCCCCN1CCN(C(=O)N[C@@H](C(=O)N[C@@H]2C(=O)N3[C@@H]2SC(C)(C)[C@@H]3C(=O)O)c2ccccc2)C(=O)C1",
    "Output unit": "µg/mL",
    "MIC Staphylococcus aureus MS 8596": 3.13
  },
  {
    "Compound": "CCCCCCCCN1CCN(C(=O)NC(C(=O)NC2C(=O)N3C2SC(C)(C)C3C(=O)O)c2ccccc2)C(=O)C1=O (single isomer, unassigned)",
    "Output unit": "µg/mL",
    "MIC Staphylococcus aureus MS 8596": 3.13
  },
  {
    "Compound": "CCCN1CCN(C(=O)NC(C(=O)NC2C(=O)N3C2SC(C)(C)C3C(=O)O)c2ccccc2)C(=O)C1=O (single isomer, unassigned)",
    "Output unit": "µg/mL",
    "MIC Staphylococcus aureus MS 8596": 3.13
  },
  {
    "Compound": "CN1CCN(C(=O)NC(C(=O)NC2C(=O)N3C2SC(C)(C)C3C(=O)O)c2ccccc2)C(=O)C1=O (single isomer, unassigned)",
    "Output unit": "µg/mL",
    "MIC Staphylococcus aureus MS 8596": 3.13
  },
  {
    "Compound": "CCCCN1CCN(C(=O)N[C@@H](C(=O)N[C@@H]2C(=O)N3[C@@H]2SC(C)(C)[C@@H]3C(=O)O)c2ccccc2)C(=O)C1",
    "Output unit": "µg/mL",
    "MIC Staphylococcus aureus MS 8596": 3.13
  },
  {
    "Compound": "CC1(C)S[C@@H]2[C@H](NC(=O)[C@H](N)c3ccccc3)C(=O)N2[C@H]1C(=O)O [Sodium Ampicillin, reference compound]",
    "Output unit": "µg/mL",
    "MIC Staphylococcus aureus MS 8596": 1.56
  },
  {
    "Compound": "CCCCCCN1CCN(C(=O)N[C@@H](C(=O)N[C@@H]2C(=O)N3[C@@H]2SC(C)(C)[C@@H]3C(=O)O)c2ccccc2)C(=O)C1",
    "Output unit": "µg/mL",
    "MIC Staphylococcus aureus MS 8596": 3.13
  },
  {
    "Compound": "CC1(C)S[C@@H]2[C@H](NC(=O)C(C(=O)O)c3ccccc3)C(=O)N2[C@H]1C(=O)O (stereo partly drawn) [Sodium Carbenicillin, reference compound]",
    "Output unit": "µg/mL",
    "MIC Staphylococcus aureus MS 8596": 6.25
  },
  {
    "Compound": "CC(=O)N1CCN(C(=O)N[C@@H](C(=O)N[C@@H]2C(=O)N3[C@@H]2SC(C)(C)[C@@H]3C(=O)O)c2ccccc2)C(=O)C1",
    "Output unit": "µg/mL",
    "MIC Staphylococcus aureus MS 8596": 3.13
  },
  {
    "Compound": "CC(C)N1CCN(C(=O)NC(C(=O)NC2C(=O)N3C2SC(C)(C)C3C(=O)O)c2ccccc2)C(=O)C1=O (single isomer, unassigned)",
    "Output unit": "µg/mL",
    "MIC Staphylococcus aureus MS 8596": 3.13
  }
]

----------
# System: Pseudomonas aeruginosa I.F.O.
# Assay protocol: MIC, plate method, standard strains
# Type: cell-based
# Condition context: Table 4, standard strain; unit assumed

[
  {
    "Compound": "CCCCN1CCN(C(=O)NC(C(=O)NC2C(=O)N3C(C(=O)O)=C(CSc4nnnn4C)CSC23)c2ccccc2)C(=O)C1=O (single isomer, unassigned)",
    "MIC Pseudomonas aeruginosa I.F.O. [µg/mL]": 25
  },
  {
    "Compound": "CCN1CCN(C(=O)NC(C(=O)NC2C(=O)N3C(C(=O)O)=C(COC)CSC23)c2ccccc2)C(=O)C1=O (single isomer, unassigned)",
    "MIC Pseudomonas aeruginosa I.F.O. [µg/mL]": 50
  },
  {
    "Compound": "CCN1CCN(C(=O)NC(C(=O)NC2C(=O)N3C(C(=O)O)=C(CSc4cnn[nH]4)CSC23)c2ccccc2)C(=O)C1=O (single isomer, unassigned)",
    "MIC Pseudomonas aeruginosa I.F.O. [µg/mL]": 50
  },
  {
    "Compound": "CCN1CCN(C(=O)NC(C(=O)NC2C(=O)N3C(C(=O)O)=C(CSc4nnnn4CC)CSC23)c2ccc(O)cc2)C(=O)C1=O (single isomer, unassigned)",
    "MIC Pseudomonas aeruginosa I.F.O. [µg/mL]": 12.5
  },
  {
    "Compound": "CCN1CCN(C(=O)NC(C(=O)NC2C(=O)N3C(C(=O)O)=C(CSc4nnc(C)s4)CSC23)c2ccc(O)cc2)C(=O)C1=O (single isomer, unassigned)",
    "MIC Pseudomonas aeruginosa I.F.O. [µg/mL]": 50
  }
]
